Target: T1, 4H584-bN
T1 chain: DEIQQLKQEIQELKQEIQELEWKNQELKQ
Assay: two-hybrid library CCNG1;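 further: natural log of median RNA to DNA barcode read ratio; higher means stronger binding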
Property: interaction score

I = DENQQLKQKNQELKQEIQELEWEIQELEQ [4H1985-bN]
II = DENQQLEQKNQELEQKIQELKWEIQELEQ [4H1449-bN]
III = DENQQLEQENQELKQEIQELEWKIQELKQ [4H1222-bN]
input: Ascending by interaction score, please: list the binders accordingly. API: response body holds the labels in the requested order.
output: I, III, II
